- assayed-target: CD3ε homodimer protein (human, UniProt P07766 23-126, limits assumed)
- Sequence (P07766 23-126 limits assumed): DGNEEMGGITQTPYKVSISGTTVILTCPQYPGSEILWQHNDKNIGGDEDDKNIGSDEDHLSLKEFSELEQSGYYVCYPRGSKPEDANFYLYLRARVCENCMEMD
- assay-procedure: SPR, immobilized CD3ε homodimer;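 further: biacore T200 surface plasmon resonance at 25 °C, antibody variants flowed as analytes over amine-coupled CD3ε homodimer on a CM4 chip, variant binding amount divided by that of GLS3000 antibody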
property-name: ratio of amounts bound (vs GLS3000)
Lab note: record just the number, no unit beside it.

[in] Note down ratio of amounts bound (vs GLS3000) recorded for GLS3000 S25V (antibody, name in Kabat numbering, V domains shown, one-arm format as m2) VH: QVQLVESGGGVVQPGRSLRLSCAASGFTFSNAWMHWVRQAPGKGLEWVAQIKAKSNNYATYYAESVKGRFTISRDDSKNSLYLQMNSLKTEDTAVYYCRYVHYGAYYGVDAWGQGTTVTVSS VL: DIVMTQSPLSLPVTPGEPASISCRVSQSLVHSNRNTYLHWYQQKPGQAPRLLIYKVSNRFSGVPDRFSGSGSGTDFTLKISRVEAEDVGVYYCGQGTQVPYTFGQGTKLEIK
[out] 0.73

[in] Note down ratio of amounts bound (vs GLS3000) recorded for GLS3000 V27cL (antibody, name in Kabat numbering, V domains shown, one-arm format as m2) VH: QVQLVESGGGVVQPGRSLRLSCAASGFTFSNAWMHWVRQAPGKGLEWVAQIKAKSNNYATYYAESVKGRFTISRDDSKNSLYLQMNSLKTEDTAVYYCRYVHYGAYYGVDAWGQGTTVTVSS VL: DIVMTQSPLSLPVTPGEPASISCRSSQSLLHSNRNTYLHWYQQKPGQAPRLLIYKVSNRFSGVPDRFSGSGSGTDFTLKISRVEAEDVGVYYCGQGTQVPYTFGQGTKLEIK
[out] 0.84

[in] Note down ratio of amounts bound (vs GLS3000) recorded for GLS3000 R24A (antibody, name in Kabat numbering, V domains shown, one-arm format as m2) VH: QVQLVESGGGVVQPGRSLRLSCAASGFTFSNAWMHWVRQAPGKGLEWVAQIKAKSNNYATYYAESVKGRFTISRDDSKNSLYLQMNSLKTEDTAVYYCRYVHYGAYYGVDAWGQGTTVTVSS VL: DIVMTQSPLSLPVTPGEPASISCASSQSLVHSNRNTYLHWYQQKPGQAPRLLIYKVSNRFSGVPDRFSGSGSGTDFTLKISRVEAEDVGVYYCGQGTQVPYTFGQGTKLEIK
[out] 0.86

[in] Note down ratio of amounts bound (vs GLS3000) recorded for GLS3000 S52Y (antibody, name in Kabat numbering, V domains shown, one-arm format as m2) VH: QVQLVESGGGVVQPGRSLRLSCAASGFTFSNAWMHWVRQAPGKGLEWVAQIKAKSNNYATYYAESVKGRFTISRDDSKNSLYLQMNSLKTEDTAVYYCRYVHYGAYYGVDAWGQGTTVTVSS VL: DIVMTQSPLSLPVTPGEPASISCRSSQSLVHSNRNTYLHWYQQKPGQAPRLLIYKVYNRFSGVPDRFSGSGSGTDFTLKISRVEAEDVGVYYCGQGTQVPYTFGQGTKLEIK
[out] 1.12

[in] Note down ratio of amounts bound (vs GLS3000) recorded for GLS3000 G89W (antibody, name in Kabat numbering, V domains shown, one-arm format as m2) VH: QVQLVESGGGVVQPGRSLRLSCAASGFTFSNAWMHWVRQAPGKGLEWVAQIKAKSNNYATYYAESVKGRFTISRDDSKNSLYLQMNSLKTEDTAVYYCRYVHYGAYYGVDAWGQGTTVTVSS VL: DIVMTQSPLSLPVTPGEPASISCRSSQSLVHSNRNTYLHWYQQKPGQAPRLLIYKVSNRFSGVPDRFSGSGSGTDFTLKISRVEAEDVGVYYCWQGTQVPYTFGQGTKLEIK
[out] 0.5
